We begin with a simple list: items and their reported growth.
tested on: 786-0 renal; assay: NCI-60 one-dose screen, 48 h (100 = growth as untreated, 0 = no growth, -100 = all killed); conditions: 10 µM unless noted
This is part of a sample that, as a whole, favours compounds with a hit. Of some 83,000 tested, about 20% had one in any assay.
# unit: % | format: bare number

Examples with their reported growth follow.
# Molecule, Reading unit, Value observed
rows = [
    ("CCOC(=O)/C(F)=C/C1CC1C(c1ccccc1)c1ccccc1 (centres undefined)", "%", 93),
    ("O=C1/C(=C/C=C/c2ccco2)SC(=S)N1CC(=S)C1C=CS(=O)(=O)C1 (centres undefined)", "%", 91.2),
    ("O=C1Nc2cc(-c3ccc(NS(=O)(=O)c4ccc([N+](=O)[O-])cc4)cc3)ccc2/C1=C/c1ccc[nH]1", "%", -8.24),
    ("COc1ccc(-c2cc(C(=O)N=Nc3c(O)[nH]c4ccc(Cl)cc34)c3ccccc3n2)cc1", "%", 72.4),
    ("Cc1cc(C(NC(=O)CCCCCNc2cccc3c2C(=O)N(C2CCC(=O)CC2=O)C3=O)c2cccc(N(C)C)c2)c(O)c2ncccc12 (centres undefined)", "%", 2.23),
]

Hello, please tell me recorded growth for this one: O=[N+]([O-])c1cccc(-c2nnc3c(/C=C/c4ccc(F)cc4)nc4ccccc4n23)c1 93.5

Hello, please tell me recorded growth for this one: COc1cc(C=O)ccc1OC(=O)c1cc(-c2ccc(C)cc2)n(-c2ccc(S(C)(=O)=O)cc2)n1 102

Hello, please tell me recorded growth for this one: COc1ccc(/C=C/C(=O)c2ccc(OC)c(S(N)(=O)=O)c2)c(C(F)(F)F)c1 -82

Hello, please tell me recorded growth for this one: Cn1cc(-c2cc(N)n3nc(-c4c[nH]c5ccccc45)cc3n2)c2cc(Br)ccc21 -73.7

----------
tested on: SF-295 CNS; test: NCI-60 one-dose screen, 48 h; settings: 10 µM unless noted
This is part of a sample that, as a whole, favours compounds with a hit. Of some 83,000 tested, about 20% had one in any assay. Active and inactive are the calls of the source. Rule for the calls: active = growth percent below 10; inactive = the rest.
Answer with one of the outcomes given here: active, inactive

Example cases with answers are listed next.
# Compound, Target system, Category label
records = [
    ("COc1ccccc1Nc1nnc(-c2c[nH]c3ccccc23)o1", "SF-295 CNS", "active"),
    ("COC(=O)CSC1=C(C)C(=O)C(OC)=C(OC)C1=O", "SF-295 CNS", "inactive"),
    ("Cc1nc(N)ncc1-c1ccc2ncnc(N3CCc4cc(F)c(Cl)cc43)c2c1", "SF-295 CNS", "inactive"),
    ("COc1ccc(-c2nc3ccccc3n2CC(=O)N=Nc2c(O)[nH]c3ccc(OC)cc23)cc1", "SF-295 CNS", "inactive"),
]

Consider the additional compound presented here.
Tell me the recorded outcome of this test for Cc1cc(C(NC(=O)CCCCCNc2cccc3c2C(=O)N(C2CCC(=O)CC2=O)C3=O)c2cccc(N(C)C)c2)c(O)c2ncccc12 (stereo not given) . active

----------
tested on: NCI-H322M lung; experiment: NCI-60 one-dose screen, 48 h; conditions: 10 µM unless noted
About 83,000 compounds went through this panel and 20% of them were active in at least one assay; those are over-represented in the sample as a whole. Active and inactive are the calls of the source. The calls were made as follows: active = growth percent below 10; inactive = the rest.
Answer with one of the outcomes given here: active, inactive

# Molecule, Category label
rows = [
    ("Nc1nn2c(-c3cc4cc(Br)ccc4oc3=O)ccnc2c1N=Nc1ccccc1", "active"),
    ("CN(C)CCCNC(=S)Nc1ccc(/C=C/c2ccc(Cl)cc2)cc1", "active"),
    ("O=C(c1ccc(O)cc1)C1[C@H](c2ccc(Cl)cc2)[C@@H](c2ccccc2)NC12C(=O)Nc1ccc(Br)cc12 (stereo not given in full)", "active"),
    ("CCCCN1C(=O)/C(=C\\C(=O)c2cc3ccccc3oc2=O)c2ccccc21", "inactive"),
]

Tell me the recorded outcome of this test for COc1cc(C2CC(c3ccc(Cl)cc3)=Nc3c(N)nc(N)nc3N2)ccc1Oc1nc(Nc2ccc(F)cc2)nc(N(C)C)n1 (stereo not given) . inactive

Tell me the recorded outcome of this test for O=C(NC(=S)N1CCN(c2ncnc3c2cnn3-c2ccccc2)CC1)c1ccc(F)cc1 . inactive

Tell me the recorded outcome of this test for O=C(Nc1nc2ccccc2s1)Nc1ccccc1Cl . inactive

Tell me the recorded outcome of this test for O=C1Nc2cc(-c3ccc(NS(=O)(=O)c4ccc(C(F)(F)F)cc4)cc3)ccc2/C1=C/c1ccc[nH]1 . inactive

Tell me the recorded outcome of this test for CN(C)c1ccc(/C=C/c2n(Cc3ccc4ccccc4c3)c3ccccc3[n+]2Cc2ccc3ccccc3c2)cc1 . active

Tell me the recorded outcome of this test for CC1=C(C)C(=O)C(N2CCSCC2)=CC1=O . inactive

----------
system: TK-10 renal; assay: NCI-60 one-dose screen, 48 h (100 = growth as untreated, 0 = no growth, -100 = all killed); conditions: 10 µM unless noted
This is part of a sample that, as a whole, favours compounds with a hit. Of some 83,000 tested, about 20% had one in any assay.
Test readout: growth (%)
# unit: % | format: bare number

Examples with their reported growth follow.
# Molecule, growth (%)
measured = [
    ("COc1ccc2c(c1)C(Sc1ccc(Br)cc1)c1c(nc(N)c(C#N)c1N)O2 (stereo not given)", 108),
    ("COc1cc(-c2ccc3ncnc(N4CCc5ccc(Cl)cc54)c3c2)cnc1Cl", 29.5),
    ("CC1=C(C(=O)OCc2ccccc2)C(c2cccc3ccccc23)n2c(nc3ccccc32)N1 (stereo not given)", 66.6),
    ("COc1c(F)ccc(C(=O)Nc2ccc3nc(NC(=O)C4CCCN(S(=O)(=O)c5ccc(C(C)(C)C)cc5)C4)sc3c2)c1F (stereo not given)", 93.6),
    ("COc1c2c(c(Br)c3c1C(CCc1ccccc1)N(C)CC3)OCO2 (stereo not given)", 70.9),
]

Please respond with reported growth (system TK-10 renal) for COc1c(B(O)O)cc(F)cc1-c1nc2c(F)cc3[nH]ncc3c2c2c1CCCC2 . 21.3

Please respond with reported growth (system TK-10 renal) for O=C1Nc2ccc(F)cc2/C1=C/C(=O)c1cc2ccccc2oc1=O . 161

Please respond with reported growth (system TK-10 renal) for c1n[nH]cc1-c1nc2ccc3cn[nH]c3c2c2c1CCCC2 . 104

Please respond with reported growth (system TK-10 renal) for CC[C@]12C=CCN3CC[C@]4(C(=C(C(=O)OC)C1)Nc1cc(OC)c([C@@H]5[C@H]6O[C@H]6[C@@]6(CC)CC(C(=O)OC)=C7Nc8cc(OC)ccc8[C@@]78CCN5[C@@H]68)cc14)[C@@H]32 . 72.5

Please respond with reported growth (system TK-10 renal) for N#Cc1ccc(C(=O)CSc2nc3c(c(Nc4ccc(S(N)(=O)=O)cc4)n2)CCC3)cc1 . 55.2

----------
We begin with a simple list: items and their reported growth.
test system: SF-539 CNS; test: NCI-60 one-dose screen, 48 h (100 = growth as untreated, 0 = no growth, -100 = all killed); conditions: 10 µM unless noted
Compounds without any hit were thinned out: in the full panel of roughly 83,000, 20% have a hit.
# unit: % | format: bare number

Hello, please tell me recorded growth for this one: CCOC(=O)c1ccc(NC(=S)NC(=O)c2ccc(NC(=O)C(C)C)cc2OC)cc1 79.6

Hello, please tell me recorded growth for this one: Cc1[nH]nc2ccc3nc(-c4cnn(CCO)c4)c4c(c3c12)CCCC4 33.7

Hello, please tell me recorded growth for this one: O=C(NNC(=O)c1ccc(OCc2nc3ccc(Cl)cc3[nH]2)cc1)Nc1ccc(Cl)c(Cl)c1 43.3

Hello, please tell me recorded growth for this one: COc1ccc(NC(=O)Cn2c(/C=C/c3cccc(Br)c3)nc3ccccc3c2=O)cc1 -23.4

Hello, please tell me recorded growth for this one: CC[C@]12C=CCN3CC[C@@]4(c5ccc(OC)cc5N(C)[C@H]4[C@@](O)(C(=O)OC)[C@@H]1OC(=O)CCC[P+](c1ccc(OC)cc1)(c1ccc(OC)cc1)c1ccc(OC)cc1)[C@@H]32 -98.9

Hello, please tell me recorded growth for this one: Cc1ccc2c(c1)nc(-c1ccccc1)n2CC(=O)N=Nc1c(O)[nH]c2ccc(Cl)cc12 -90.3

Hello, please tell me recorded growth for this one: COC(=O)c1c(C(=O)OC)c2c3ccccc3c3ccccc3n2c1C(=O)C(F)(F)F 95.2

Hello, please tell me recorded growth for this one: O=C(N/N=C/c1ccc(Cl)cc1)c1ccc(OCc2nc3ccc(Cl)cc3[nH]2)cc1 67.6

----------
tested on: SK-OV-3 ovarian; assay: NCI-60 one-dose screen, 48 h; settings: 10 µM unless noted
Compounds without any hit were thinned out: in the full panel of roughly 83,000, 20% have a hit. Activity calls are given as the source filed them. Rule for the calls: active = growth percent below 10; inactive = the rest.
Answer with one of the outcomes given here: y for active, n for inactive

Example cases with answers are listed next.
# Molecule, Category label
rows = [
    ("Nc1ccc(-c2ccc3ncnc(N4CCc5cc(F)c(Cl)cc54)c3c2)cn1", "y"),
    ("C=CC[n+]1cccc2c3ccccc3ccc21", "n"),
]

Tell me the recorded outcome of this test for COc1cccc(NC(=O)c2ccc(NC(=O)CCl)s2)c1 . y

Tell me the recorded outcome of this test for COC(=O)c1c(C(=O)OC)c2ccc3c4ccccc4ccc3n2c1C(=O)OC . n

Tell me the recorded outcome of this test for COc1ccc(NC(=O)NN2C(=O)c3ccccc3N(C)C2c2ccc(OC)cc2)cc1 (stereo not given) . n

Tell me the recorded outcome of this test for COC(=O)c1cc(C(=O)CBr)n2c1ccc1c3ccccc3ccc12 . n

Tell me the recorded outcome of this test for CCCCCCCCc1ccc(C(=O)Nc2cccc(O)c2)cc1 . n

Tell me the recorded outcome of this test for COc1ccc2ccccc2c1/C=C1\SC(=Nc2ccc(O)cc2)NC1=O . n

Tell me the recorded outcome of this test for Nc1cc(-c2c[nH]c3ccc(F)cc23)nc2cc(-c3c[nH]c4ccccc34)nn12 . n

Tell me the recorded outcome of this test for O=C(Nc1ccc(Cl)c(C(F)(F)F)c1)N1CCN(c2cc(-c3cn(-c4ccccc4)nc3-c3cccc(O)c3)ccn2)CC1 . n
